The entries below come with measured GI50 values attached.
System: Toledo DLBCL cells
assay info: Growth inhibition of DLBCL cells, Toledo
Format: cell-based
condition label: Homo sapiens, Table 10, BCL6 independent
State the answer as a number, implicitly in µM.

{"molecule": "O=C(CN1C(=O)C(=O)c2cc(Cl)ccc21)OCc1ccsc1 [Compound 367]", "assayed target": "Toledo DLBCL cells", "units text": "µM", "GI50": 53}

# molecule O=C(CN1C(=O)C(=O)c2cc(Cl)ccc21)OCc1ccc(Cl)cc1 [Compound 355] ; its GI50 = 45

Field GI50 (entry O=C(CN1C(=O)C(=O)c2cc(Cl)ccc21)OCc1ccc(F)cc1 [Compound 357] ) reads 50

Field GI50 (entry O=C(CN1C(=O)C(=O)c2cc(Cl)ccc21)OCc1cccc(F)c1 [Compound 358] ) reads 82

====

Test system: Ly3 DLBCL cells
assay info: Growth inhibition of DLBCL cells, Ly3
Assay type: cell-based
condition label: Table 9; Bcl6 dependent; read-out: GI 50 Ly3
property measured: GI50 (µM)
Lab book: enter the figure in µM, no units written.

{"smiles structure": "C[C@@H](OC(=O)CN1C(=O)C(=O)c2cc(Cl)ccc21)c1ccccc1", "units text": "µM", "assay value": 56}

So the reported GI50 for O=C(CN1C(=O)C(=O)c2cc(Cl)ccc21)OCc1ccc(F)cc1 , on Ly3 DLBCL cells, turned out to be 79

The measured GI50 that O=C(CN1C(=O)C(=O)c2cc(Cl)ccc21)OCc1ccc(Cl)cc1 showed for Ly3 DLBCL cells is 54

====

Tested on: SUDHL6 DLBCL cells
assay info: Growth inhibition of DLBCL cells, SUDHL6
Assay type: cell-based
condition label: Homo sapiens, SU-DHL-6; Table 9; Bcl6 dependent; read-out: GI 50 SUDHL6
# GI50 annotations
The answer is to be given in µM; state only the numeric part.

Solved entries (count: 2):
{"smiles structure": "O=C(CN1C(=O)C(=O)c2cc(Cl)ccc21)OCc1ccc(F)cc1", "assayed target": "SUDHL6 DLBCL cells", "GI50 [µM]": 1}
{"smiles structure": "O=C(CN1C(=O)C(=O)c2cc(Cl)ccc21)OCc1ccc(Cl)cc1", "assayed target": "SUDHL6 DLBCL cells", "GI50 [µM]": 1}

Could you now look at the following molecule, please?
Entry C[C@@H](OC(=O)CN1C(=O)C(=O)c2cc(Cl)ccc21)c1ccccc1 under SUDHL6 DLBCL cells had GI50 of 7

====

System: Ly3 DLBCL cells
assay info: Growth inhibition of DLBCL cells, Ly3
Assay type: cell-based
condition label: Table 2; BCL-6 dependent; 48 hours
Reported GI50 values for the following compounds.

Answered examples (3):
{"compound": "O=C(O)CN1C(=O)/C(=C2/C(=O)Nc3c(Cl)cc(Cl)cc32)SC1=S [Compound 2039]", "assayed target": "Ly3 DLBCL cells", "property measured": "GI50", "assay value": "> 40 µM"}
{"compound": "O=C(O)CN1C(=O)/C(=C2/C(=O)Nc3c(F)cccc32)SC1=S [Compound 2035]", "assayed target": "Ly3 DLBCL cells", "property measured": "GI50", "assay value": "> 40 µM"}
{"compound": "O=C(O)CCN1C(=O)/C(=C2/C(=O)Nc3c(Cl)cccc32)SC1=S [Compound 1167]", "assayed target": "Ly3 DLBCL cells", "property measured": "GI50", "assay value": "> 40 µM"}

Looking up COc1cc(Br)cc2c1NC(=O)/C2=C1\SC(=S)N(CCC(=O)O)C1=O [Compound 1113] , I see its GI50 listed as > 40 µM

Documented GI50 of O=C(O)CN1C(=O)/C(=C2/C(=O)Nc3c(Cl)cccc32)SC1=S [Compound 2037] : > 40 µM

Sure, the documented GI50 for O=C(O)CN1C(=O)/C(=C2/C(=O)Nc3ccc(F)cc32)SC1=S [Compound 2033] is > 40 µM

The compound listed as O=C(O)CCN1C(=O)/C(=C2/C(=O)Nc3ccc(F)cc32)SC1=S [Compound 1115] shows GI50 equal to 22 µM

The compound identified as O=C(O)CCN1C(=O)SC(C2(O)C(=O)Nc3ccc(Cl)cc32)C1=O (centres unmarked) [Compound 2023] registered its GI50 at > 40 µM

Entry O=C(O)CCN1C(=O)/C(=C2/C(=O)Nc3c(Cl)cc(Cl)cc32)SC1=S [Compound 1093] ; GI50 = > 40 µM

GI50 for O=C(O)CN1C(=O)/C(=C2/C(=O)Nc3ccc(Cl)cc32)SC1=S [Compound 2031] is > 40 µM

Just so you know, measured GI50 for O=C(O)CCN1C(=O)/C(=C2/C(=O)Nc3c(F)cccc32)SC1=S [Compound 1117] came out at 21 µM

Where do these numbers come from? They come from patent US9943506B2.
